Recorded SGF Half-life (t½) values for a group of molecules are listed next.
Assay: Intact half-life during simulated gastric fluid (SGF) digestion
Settings: SGF pH 1.5, pepsin:polypeptide 1:20 w/w, 37° C.; intact protein
Express the result in s but write the number alone.

Examples from the recorded data:
Exam item: Returns the measured SGF Half-life (t½) for the input molecule. Input: SEQID-00226: nutritive polypeptide (protein, listed as Bos taurus) QLQALQAQLTDTKKKVDDDLGTIENLEEAKKKLLKDVEVLSQRLEEKALAYDKLEKTKTRLQQELDDLLVDLDHQRQIVSNLEKKQKKFDQLLAEEKNIS
Marked response: 42

Exam item: Moving on to the next molecule: SEQID-00345: nutritive polypeptide (protein, Arthrospira platensis NIES-39) MNTLDLQNQRILVTGGAGFLGKQVIDQLLKAGAKSENISVPRSHNCDLRNLEACQQAAKGQDIIIHLAAHVGGIGLNQVKPAELFYDNLMMGTQLIHSAYQAGVKKFVCVGTICAYPKFTPVPFQEDDLWNGYPEETNAPYGIAKKALLVQLQAYRQQYGFNGIYLLPVNLYGPEDNFNPKSSHVIPALVRKVYEAQQRGDKQLPVWGDGSPSREFLYSTDAARGIVMATQHYDEPDPVNLGTNSEVTIRDLVELICELMEFQGEIVWETDKPNGQPRRCLDTNRAKERFGFVAEVEFRQGLKNTIDWYRQNPDL
Marked response: 48

Exam item: Moving on to the next molecule: SEQID-00511: protein of the 168 nutritive polypeptide library (protein, Arthrospira platensis C1, protein of the 168 nutritive polypeptide library) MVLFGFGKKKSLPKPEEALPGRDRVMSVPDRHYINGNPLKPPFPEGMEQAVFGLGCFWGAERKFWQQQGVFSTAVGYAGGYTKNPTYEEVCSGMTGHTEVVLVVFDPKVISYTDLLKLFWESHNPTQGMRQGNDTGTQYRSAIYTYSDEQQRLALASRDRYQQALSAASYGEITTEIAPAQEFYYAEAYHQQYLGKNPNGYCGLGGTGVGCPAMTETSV
Marked response: 18

Exam item: Moving on to the next molecule: SEQID-00236: nutritive polypeptide (protein, listed as Bos taurus) ALQEAHQQTLDDLQAEEDKVNTLTKAKTKLEQQVDDLEGSLEQEKKLRMDLERAKRKLEGDLKLA
Marked response: 600

Exam item: Moving on to the next molecule: SEQID-00610: protein of the 168 nutritive polypeptide library (protein, listed as Saccharomyces cerevisiae, source: /note="strain ATCC 204508 / S288c", protein of the 168 nutritive polypeptide library) MVLEATVLVIDNSEYSRNGDFPRTRFEAQIDSVEFIFQAKRNSNPENTVGLISGAGANPRVLSTFTAEFGKILAGLHDTQIEGKLHMATALQIAQLTLKHRQNKVQHQRIVAFVCSPISDSRDELIRLAKTLKKNNVAVDIINFGEIEQNTELLDEFIAAVNNPQEETSHLLTVTPGPRLLYENIASSPIILEEGSSGMGAFGGSGGDSDANGTFMDFGVDPSMDPELAMALRLSMEEEQQRQERLRQQQQQQDQPEQSEQPEQHQDK
Marked response: 24

Would you kindly look at the next entry?
Exam item: Returns the measured SGF Half-life (t½) for the input molecule. Input: SEQID-00100: nutritive polypeptide (protein, listed as Lactobacillus acidophilus) MSEEEIFNKIKDLIADNFEVDKDSITENTNFMNDLDADSIDLVEFILQLEDEFGAEIPDDEAEKIKTVGDAVSYIKSHQG
Marked response: 120
